biological target: DNA-dependent protein kinase catalytic subunit (Homo sapiens, UniProt P78527); assay: Inhibition of DNA-dependent protein kinase
Sequence (P78527 whole entry): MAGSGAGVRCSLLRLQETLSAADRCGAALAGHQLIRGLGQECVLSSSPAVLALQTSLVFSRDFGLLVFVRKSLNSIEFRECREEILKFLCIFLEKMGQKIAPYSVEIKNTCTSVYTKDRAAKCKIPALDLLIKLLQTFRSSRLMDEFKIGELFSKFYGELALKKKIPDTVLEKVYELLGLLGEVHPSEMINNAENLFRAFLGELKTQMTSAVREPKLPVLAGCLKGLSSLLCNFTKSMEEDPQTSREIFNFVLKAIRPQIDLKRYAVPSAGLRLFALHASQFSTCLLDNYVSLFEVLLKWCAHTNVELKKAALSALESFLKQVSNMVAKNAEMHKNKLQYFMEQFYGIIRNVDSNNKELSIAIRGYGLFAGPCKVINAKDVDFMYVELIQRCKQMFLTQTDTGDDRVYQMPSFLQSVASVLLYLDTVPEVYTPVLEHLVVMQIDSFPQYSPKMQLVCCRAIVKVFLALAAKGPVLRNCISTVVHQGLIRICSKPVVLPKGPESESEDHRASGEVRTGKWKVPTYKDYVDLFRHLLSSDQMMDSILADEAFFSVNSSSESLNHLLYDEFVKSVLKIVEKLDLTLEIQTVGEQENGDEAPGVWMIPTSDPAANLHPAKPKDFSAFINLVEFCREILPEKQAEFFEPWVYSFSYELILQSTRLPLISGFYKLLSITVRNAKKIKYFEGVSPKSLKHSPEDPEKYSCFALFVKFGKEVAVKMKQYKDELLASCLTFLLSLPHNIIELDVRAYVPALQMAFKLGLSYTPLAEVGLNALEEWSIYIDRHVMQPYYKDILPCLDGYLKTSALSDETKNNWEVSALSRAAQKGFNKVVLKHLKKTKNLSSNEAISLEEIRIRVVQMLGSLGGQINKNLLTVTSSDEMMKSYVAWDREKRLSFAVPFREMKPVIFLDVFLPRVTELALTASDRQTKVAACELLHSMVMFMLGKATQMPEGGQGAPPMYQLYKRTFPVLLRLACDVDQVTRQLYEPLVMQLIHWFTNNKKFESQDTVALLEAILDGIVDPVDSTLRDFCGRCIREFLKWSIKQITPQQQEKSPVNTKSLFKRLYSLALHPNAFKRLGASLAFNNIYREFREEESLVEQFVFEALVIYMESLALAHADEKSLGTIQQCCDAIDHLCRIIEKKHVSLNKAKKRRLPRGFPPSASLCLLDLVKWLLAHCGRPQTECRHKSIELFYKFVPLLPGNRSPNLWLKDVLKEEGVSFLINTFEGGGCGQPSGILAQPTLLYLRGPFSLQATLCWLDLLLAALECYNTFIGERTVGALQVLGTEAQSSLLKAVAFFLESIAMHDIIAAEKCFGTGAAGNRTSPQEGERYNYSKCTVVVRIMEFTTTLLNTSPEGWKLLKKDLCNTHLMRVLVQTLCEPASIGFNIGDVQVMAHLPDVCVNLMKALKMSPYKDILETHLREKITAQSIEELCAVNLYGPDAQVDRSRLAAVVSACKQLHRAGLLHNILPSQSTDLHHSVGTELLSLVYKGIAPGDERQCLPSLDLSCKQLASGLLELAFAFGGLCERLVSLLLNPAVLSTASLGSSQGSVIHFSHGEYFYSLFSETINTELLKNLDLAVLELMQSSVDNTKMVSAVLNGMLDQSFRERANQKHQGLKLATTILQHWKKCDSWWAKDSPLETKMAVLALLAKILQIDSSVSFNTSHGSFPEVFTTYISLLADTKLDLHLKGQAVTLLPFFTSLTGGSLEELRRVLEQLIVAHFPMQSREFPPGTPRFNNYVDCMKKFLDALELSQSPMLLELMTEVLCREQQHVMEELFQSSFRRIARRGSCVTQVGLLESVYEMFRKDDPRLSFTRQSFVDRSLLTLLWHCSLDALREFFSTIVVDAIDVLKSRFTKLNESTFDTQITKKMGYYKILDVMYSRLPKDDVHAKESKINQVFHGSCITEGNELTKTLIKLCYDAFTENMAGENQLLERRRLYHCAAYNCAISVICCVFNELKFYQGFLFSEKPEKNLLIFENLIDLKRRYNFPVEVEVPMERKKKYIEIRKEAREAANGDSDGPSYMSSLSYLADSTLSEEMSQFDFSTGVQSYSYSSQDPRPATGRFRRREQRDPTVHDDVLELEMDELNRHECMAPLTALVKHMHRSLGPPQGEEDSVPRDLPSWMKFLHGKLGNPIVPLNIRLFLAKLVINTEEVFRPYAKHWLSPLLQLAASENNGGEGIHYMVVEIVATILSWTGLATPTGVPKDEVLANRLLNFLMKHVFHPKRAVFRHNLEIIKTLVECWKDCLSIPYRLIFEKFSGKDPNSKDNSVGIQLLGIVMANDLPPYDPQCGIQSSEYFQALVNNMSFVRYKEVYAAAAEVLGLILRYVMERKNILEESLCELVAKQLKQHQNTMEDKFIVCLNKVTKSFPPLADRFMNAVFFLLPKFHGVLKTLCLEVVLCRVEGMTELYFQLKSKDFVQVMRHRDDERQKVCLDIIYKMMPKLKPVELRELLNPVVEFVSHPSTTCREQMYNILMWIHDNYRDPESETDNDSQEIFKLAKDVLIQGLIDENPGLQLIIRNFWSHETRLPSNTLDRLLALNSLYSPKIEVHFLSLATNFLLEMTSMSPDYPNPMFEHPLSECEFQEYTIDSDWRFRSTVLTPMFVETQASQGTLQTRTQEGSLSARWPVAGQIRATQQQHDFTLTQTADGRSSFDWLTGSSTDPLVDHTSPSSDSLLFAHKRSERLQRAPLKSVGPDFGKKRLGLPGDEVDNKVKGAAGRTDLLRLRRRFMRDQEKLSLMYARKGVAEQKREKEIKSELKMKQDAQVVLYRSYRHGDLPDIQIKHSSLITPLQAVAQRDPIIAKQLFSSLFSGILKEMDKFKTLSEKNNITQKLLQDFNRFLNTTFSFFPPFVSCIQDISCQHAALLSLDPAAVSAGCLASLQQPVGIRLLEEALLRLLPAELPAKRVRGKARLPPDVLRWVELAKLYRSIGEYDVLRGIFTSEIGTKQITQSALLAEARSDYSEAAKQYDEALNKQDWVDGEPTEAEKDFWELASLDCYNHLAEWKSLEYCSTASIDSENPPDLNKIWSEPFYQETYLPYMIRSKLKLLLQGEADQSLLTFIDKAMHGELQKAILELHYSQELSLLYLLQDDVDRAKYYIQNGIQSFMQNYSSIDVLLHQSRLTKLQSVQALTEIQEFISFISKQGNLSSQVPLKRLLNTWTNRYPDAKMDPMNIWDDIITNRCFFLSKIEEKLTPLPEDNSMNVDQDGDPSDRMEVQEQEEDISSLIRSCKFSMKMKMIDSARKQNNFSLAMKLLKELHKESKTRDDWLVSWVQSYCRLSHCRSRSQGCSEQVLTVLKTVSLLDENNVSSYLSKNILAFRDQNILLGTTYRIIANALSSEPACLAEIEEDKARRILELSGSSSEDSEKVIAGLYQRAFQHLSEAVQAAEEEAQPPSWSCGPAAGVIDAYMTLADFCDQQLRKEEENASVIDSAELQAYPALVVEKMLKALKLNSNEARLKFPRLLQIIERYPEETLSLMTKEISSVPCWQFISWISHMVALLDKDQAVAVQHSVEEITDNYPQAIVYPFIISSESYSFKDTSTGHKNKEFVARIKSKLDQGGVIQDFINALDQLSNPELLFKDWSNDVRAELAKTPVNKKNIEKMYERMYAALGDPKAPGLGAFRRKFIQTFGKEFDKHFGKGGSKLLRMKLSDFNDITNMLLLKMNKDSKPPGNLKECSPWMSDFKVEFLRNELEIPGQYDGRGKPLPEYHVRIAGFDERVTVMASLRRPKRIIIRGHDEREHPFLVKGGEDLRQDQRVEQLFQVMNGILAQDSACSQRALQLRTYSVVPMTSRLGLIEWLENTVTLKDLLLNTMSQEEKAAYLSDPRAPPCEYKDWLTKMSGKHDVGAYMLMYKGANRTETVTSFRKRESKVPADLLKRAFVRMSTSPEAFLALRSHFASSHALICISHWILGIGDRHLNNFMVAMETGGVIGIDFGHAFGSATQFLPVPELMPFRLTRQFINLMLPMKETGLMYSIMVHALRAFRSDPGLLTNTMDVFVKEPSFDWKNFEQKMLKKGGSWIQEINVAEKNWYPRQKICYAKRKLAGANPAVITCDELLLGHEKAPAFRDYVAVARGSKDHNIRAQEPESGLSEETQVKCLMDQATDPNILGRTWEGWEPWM
MEASURED QUANTITY: IC50 (µM)
Provide the reading as a plain figure in µM.

• COc1cccc2c(=O)cc(N3CCOCC3)oc12 = 1.8
• O=c1cc(N2CCOCC2)c2ccc(-c3cccc4c3oc3ccccc34)cc2o1 = 2.1
• O=c1cc(N2CCOCC2)c2ccc(-c3cccc4c3sc3ccccc34)cc2o1 = 2.1

Need IC50 of O=c1oc(N2CCOCC2)cc2c(-c3cccc(-c4ccccc4)c3)cccc12 , thanks.
0.68

Need IC50 of O=c1cc(N2CCOCC2)c2cc(-c3cccs3)ccc2o1 , thanks.
1.2

Need IC50 of O=c1cc(N2CCOCC2)c2cc(-c3ccccc3)ccc2o1 , thanks.
1.8

Need IC50 of O=c1oc(N2CCOCC2)cc2c(-c3cccc4c3sc3ccccc34)cccc12 , thanks.
0.34
